# PROTOCOL DETAILS: ATG_MRE_CIS: Attagene CIS-FACTORIAL HepG2 Assay for human Metal Responsive Element (MRE) (AID 2282954)
# MEASUREMENT SETUP: HepG2 MRE cis-reporter transcription, Attagene multiplex; actives raise or lower the signal
# Experimental: ATG_CIS is a cell-based, multiplexed-readout assay that uses HepG2, a human liver cell line, with measurements taken at 24 hours after chemical dosing in a 24-well plate.ATG_MRE_CIS is one of 52 assay component(s) measured or calculated from the ATG_CIS assay. […] This assay endpoint, ATG_MRE_CIS, was analyzed with bidirectional fitting relative to DMSO as the negative control and baseline of activity. […]
The source made the active and inactive calls. The calls were made as follows: active = hit-call score of the fitted dose curve at least 0.9, where 1 is the maximum; inactive = score below 0.9.
Hi! Could you answer with just one of these? active, inactive

For CCSC(=O)N(CC)C1CCCCC1 , which call appears in the assay record?
inactive

For Cc1cccc(C)c1N , which call appears in the assay record?
inactive

For CCCN(CCC)N=O , which call appears in the assay record?
inactive

For Oc1ccc(C(c2ccc(O)cc2)(C(F)(F)F)C(F)(F)F)cc1 , which call appears in the assay record?
active

For c1ccc(-c2ccccc2)cc1 , which call appears in the assay record?
inactive

For Clc1ccc(Cl)cc1 , which call appears in the assay record?
inactive

For CC1=C2C[C@H]3[C@@H](CC=C4C[C@@H](O)CC[C@@]43C)[C@@H]2CC[C@]12O[C@@H]1C[C@H](C)CN[C@H]1[C@H]2C , which call appears in the assay record?
active

---

# Read-out: Fatty Acid-Binding Protein 1 (FABP1), FABP1 (gene 2168)
# PROTOCOL DETAILS: LTEA_HepaRG_FABP1: Life Technologies and Expression Analysis (LTEA) Assay for Fatty Acid-Binding Protein 1 (FABP1) using HepaRG (AID 2283494)
# MEASUREMENT SETUP: mRNA level, 48 h; actives raise or lower the signal
The source made the active and inactive calls. Rule for the calls: active = hit-call score of the fitted dose curve at least 0.9, where 1 is the maximum; inactive = score below 0.9.
Hi! Could you answer with just one of these? active, inactive

Answered cases to consult:
For O=C(O)C(F)(F)C(F)(F)C(F)(F)C(F)(F)C(F)(F)F , which call appears in the assay record?
active

For ClC1=C(Cl)[C@]2(Cl)[C@@H]3[C@@H](Cl)[C@H]4O[C@H]4[C@@H]3C1(Cl)C2(Cl)Cl , which call appears in the assay record?
active

For CCCCCCCCCc1ccc(O)cc1 , which call appears in the assay record?
active

For ClC1=C(Cl)[C@]2(Cl)[C@@H]3[C@@H]4C[C@@H]([C@H]5O[C@@H]45)[C@@H]3[C@@]1(Cl)C2(Cl)Cl , which call appears in the assay record?
active

For Clc1ccc(Cl)cc1 , which call appears in the assay record?
inactive

Next:
For CCC(C)(c1ccc(O)cc1)c1ccc(O)cc1 , which call appears in the assay record?
inactive

For O=C(NC(=O)c1c(F)cccc1F)Nc1cc(Cl)c(OC(F)(F)C(F)F)c(Cl)c1 , which call appears in the assay record?
active

For O=NN(c1ccccc1)c1ccccc1 , which call appears in the assay record?
inactive

For CCCCCCCCCC[N+](C)(C)CCCCCCCCCC , which call appears in the assay record?
inactive

---

# PROTOCOL DETAILS: ATG_AP_1_CIS: Attagene CIS-FACTORIAL HepG2 Assay for human Activator Protein 1 (AP-1) (AID 2282931)
# MEASUREMENT SETUP: HepG2 Attagene cis-factorial AP-1 reporter mRNA; actives raise or lower the signal
Calls of active or inactive are those of the source. Rule for the calls: active = hit-call score of the fitted dose curve at least 0.9, where 1 is the maximum; inactive = score below 0.9.
Hi! Could you answer with just one of these? true (1) for active, false (0) for inactive

For ClC1=C(Cl)[C@]2(Cl)[C@@H]3[C@H]4C[C@H]([C@@H]5O[C@H]45)[C@@H]3[C@@]1(Cl)C2(Cl)Cl , which call appears in the assay record?
false (0)

Where do the numbers come from? From PubChem BioAssay (EPA / NIEHS).
